target: FlAsH-tagged Met1-diUb E16A^prox (UniProt P0CG48); assay: fluorescence anisotropy
pKd: −log10 of the molar value.
experimental_endpoint: pKd

[[record]]
substance = "m1; m3 OTULIN:N341D; proximal Ub:E16A"
experimental_system = "FlAsH-tagged Met1-diUb E16A^prox (UniProt P0CG48)"
experimental_endpoint = "pKd"
observed_measurement = 6.93


====

biological target: Lys63-linked diUb (UniProt P0CG48); assay: fluorescence polarisation; FlAsH-tagged diUb fixed (10 μl of 100 nM plus 10 μl protein), OTULIN C129A variants serially diluted; 20 mM Tris pH 7.4, 100 mM NaCl, 5 mM β-mercaptoethanol, 0.1 mg/ml BSA; one-site binding model; triplicate
pKd: −log10 of the molar value.
experimental_endpoint: pKd

[[record]]
substance = "OTULIN (1–352) C129A (from UniProt Q96BN8 1-352) (enzyme)"
experimental_endpoint = "pKd"
observed_measurement = 4.92

